Data provenance: patent US11111251B2

# system-tested: human mAChR M1 (Homo sapiens, UniProt P11229)
# Sequence (P11229 whole entry): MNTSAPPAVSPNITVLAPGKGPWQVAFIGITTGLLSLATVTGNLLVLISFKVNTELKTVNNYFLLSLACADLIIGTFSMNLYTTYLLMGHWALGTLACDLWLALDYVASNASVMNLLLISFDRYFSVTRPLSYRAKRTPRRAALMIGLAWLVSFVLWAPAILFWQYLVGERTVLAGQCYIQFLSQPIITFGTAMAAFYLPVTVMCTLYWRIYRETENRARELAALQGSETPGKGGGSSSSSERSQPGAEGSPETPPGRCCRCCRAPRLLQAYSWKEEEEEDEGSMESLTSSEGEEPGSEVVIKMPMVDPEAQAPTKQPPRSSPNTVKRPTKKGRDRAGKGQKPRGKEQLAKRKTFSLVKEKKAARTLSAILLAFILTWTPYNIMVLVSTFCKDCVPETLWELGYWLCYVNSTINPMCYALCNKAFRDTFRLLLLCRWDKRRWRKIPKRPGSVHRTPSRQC
# experiment-notes: mAChR M1 cell-based functional assay: calcium mobilization, positive allosteric modulator mode (increase in EC20 acetylcholine response)
# assay-context: Table 2; human M1; read-out: Human M1 EC50
pEC50: −log10 of the molar value.
Could you label it rule met if measured pEC50 is 6 or higher, and rule not met otherwise?

Example entries begin here.
Cc1ncc(Cc2cc(C(=O)N[C@@H]3COCC[C@H]3O)nc3ccsc23)cn1 : rule not met
O=C(NC1CCOCC1)c1cc(Cc2c(F)cc(-c3cscn3)cc2F)c2sccc2n1 : rule met
O=C(N[C@H]1CCOC1)c1cc(Cc2ccc(-n3cccn3)cc2)c2sccc2n1 : rule met

**Q:** Decide: pEC50 of O=C(NC1CC(F)(F)C1)c1cc(Cc2ccc(-c3nccs3)cc2)c2sccc2n1 >= 6?
**A:** rule not met

**Q:** Decide: pEC50 of Cn1ccc(-c2ccc(Cc3cc(C(=O)N[C@H]4CCOC[C@@H]4O)nc4ccsc34)cn2)n1 >= 6?
**A:** rule met

**Q:** Decide: pEC50 of Cc1nc(-c2ccc(Cc3cc(C(=O)NC4CCN(C)CC4)nc4ccsc34)cc2)cs1 >= 6?
**A:** rule not met
